Tested Target: human JMJD5 (Homo sapiens)
Construct: made in house; host or cells: Escherichia coli BL21(DE3)
Sequence (Q8N371 whole entry): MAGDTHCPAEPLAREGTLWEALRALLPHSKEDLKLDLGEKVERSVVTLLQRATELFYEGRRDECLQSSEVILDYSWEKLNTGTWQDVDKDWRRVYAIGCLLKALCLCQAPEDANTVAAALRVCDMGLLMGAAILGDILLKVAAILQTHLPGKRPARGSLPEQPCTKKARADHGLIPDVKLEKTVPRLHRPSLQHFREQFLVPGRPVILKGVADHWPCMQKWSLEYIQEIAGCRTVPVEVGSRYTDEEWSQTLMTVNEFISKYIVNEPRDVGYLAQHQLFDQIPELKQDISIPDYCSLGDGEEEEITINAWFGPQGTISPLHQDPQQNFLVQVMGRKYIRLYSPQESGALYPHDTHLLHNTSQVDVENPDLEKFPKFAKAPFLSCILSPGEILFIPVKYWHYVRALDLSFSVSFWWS
Procedure Summary: SPE-MS JMJD5 inhibition assay
Type: biochemical
Test Parameters: JMJD5 0.15 μM, 2OG 2.0 μM, Fe(II) 2.0 μM, LAA 100 μM, RPS6_128–148 2.0 μM; read-out: IC50 JMJD5
pIC50: −log10 of the molar value.
This section presents compounds with their documented pIC50 values.
Measured Endpoint: pIC50

{"columns": ["Compound", "Measurement"],
 "data": [
  ["O=c1c2ccccc2[se]n1-c1ccccc1 [C00031]", 6.16],
  ["CC(CC(=O)O)C(=O)C(=O)O (stereo not shown)", "< 4.30"],
  ["O=c1c(-n2ccnn2)c[nH]n1-c1cc(N2CCOCC2)ncn1 [C00039, reference compound]", 4.53],
  ["O=C(O)C(=O)C1(C(=O)O)CC1", "< 4.30"],
  ["O=C(O)C(=O)C1C2C=CC(C2)C1C(=O)O (racemic)", "< 4.30"],
  ["O=C(O)C(=O)c1ccc(C(=O)O)c(Br)c1", "< 4.30"],
  ["O=C(O)CCNc1cc(N2CCc3ccccc3CC2)nc(-c2ccccn2)n1 [GSK-J1, reference compound]", "~5.36"],
  ["O=C(O)C(=O)c1ccc(C(=O)O)cc1F", "< 4.30"],
  ["O=C(O)C(=O)c1ccc(C(=O)O)cc1Br", "< 4.30"],
  ["O=C(O)C(=O)N[C@H](Cc1ccccc1)C(=O)O", "< 4.00"],
  ["Cc1cc(C(=O)O)ccc1C(=O)C(=O)O", "< 4.30"],
  ["O=C(O)CNC(=O)C(=O)O [NOG, N-oxalylglycine, reference compound]", "~6.70"],
  ["CN(C)CCCNC(=O)c1ccc(-c2cc(O)c3ncccc3c2)cc1", 5.52],
  ["O=C(O)CNC(=O)C(=O)O [C00025]", 6.82],
  ["O=C(O)CCNc1cc(N2CCc3ccccc3CC2)nc(-c2ccccn2)n1 [C00036]", 5.36],
  ["O=C(O)CNC(=O)c1c(O)c2ccccc2n(Cc2ccccc2)c1=O [C00035, reference compound]", 4.75],
  ["O=C(O)C(=O)c1ccc(C(=O)O)s1", "< 4.52"],
  ["O=c1c2ccccc2[se]n1-c1ccccc1 [ebselen, reference compound]", "~6.15"],
  ["O=C(O)C(=O)c1ccc(C(=O)O)c(F)c1", "< 4.30"]
]}

###

Tested Target: human JMJD5 (Homo sapiens)
Construct: made in house; host or cells: Escherichia coli BL21(DE3)
Procedure Summary: SPE-MS JMJD5 turnover and kinetic assay (RPS6_128–148 hydroxylation)
Assay type: biochemical
Test Parameters: absence of 2OG; JMJD5 0.15 μM, 2OG derivative 400 μM, Fe(II) 20 μM, RPS6_128–148 2.0 μM
Measured Endpoint: JMJD5 (%): RPS6_128–148 hydroxylation with the compound as cosubstrate

{"columns": ["Compound", "Measurement"],
 "data": [
  ["O=C(O)C(=O)c1ccc(C(=O)O)cc1", "<1%"],
  ["CCC(CC(=O)C(=O)O)C(=O)O (centres unmarked)", "∼10%"],
  ["O=C(O)C(=O)c1ccc(C(=O)O)cc1Br", "< 1%"],
  ["CC(C)CC(CC(=O)C(=O)O)C(=O)O (racemic)", "< 1%"],
  ["O=C(O)CC(Cc1ccc(OC(F)(F)F)cc1)C(=O)C(=O)O (centres unmarked)", "<1%"],
  ["O=C(O)C(=O)c1cccc(C(=O)O)c1", "<1%"],
  ["O=C(O)CCC(=O)C(=O)O [C00001]", "∼40%"],
  ["CC1(C)c2ccccc2-c2ccc(CC(CC(=O)O)C(=O)C(=O)O)cc21 (centres unmarked) [Entry 7]", "< 1%"],
  ["O=C(O)CCC(=O)C(=O)O [2OG, 2-oxoglutarate, reference compound]", "~ 40%"],
  ["CCCC(CC(=O)O)C(=O)C(=O)O (centres unmarked)", "<1%"],
  ["O=C(O)C(=O)C1(C(=O)O)CC1", "< 1%"],
  ["CC(C)(C)CCC(CC(=O)C(=O)O)C(=O)O (racemic)", "< 1%"],
  ["O=C(O)C(=O)c1ccccc1C(=O)O [C00014]", "<1%"],
  ["COc1ccc(CC(CC(=O)O)C(=O)C(=O)O)cc1 (centres unmarked)", "∼10%"],
  ["O=C(O)C(=O)CC(CCCc1ccccc1)C(=O)O (centres unmarked)", "<1%"],
  ["O=C(O)C(=O)CC(Cc1ccccc1)C(=O)O (centres unmarked) [C00010]", "<1%"],
  ["O=C(O)C(=O)c1ccc(C(=O)O)cc1F", "< 1%"],
  ["CC(CC(=O)O)C(=O)C(=O)O (centres unmarked)", "∼10%"],
  ["O=C(O)C(=O)c1cscc1C(=O)O", "< 1%"],
  ["O=C(O)C(=O)c1ccc(C(=O)O)c(Br)c1", "< 1%"],
  ["O=C(O)C(=O)c1ccc(C(=O)O)c(F)c1", "< 1%"],
  ["O=C(O)CC(CCCc1ccccc1)C(=O)C(=O)O (centres unmarked)", "<1%"],
  ["O=C(O)C(=O)CC(Cc1ccccc1)C(=O)O (racemic) [Entry 19]", "< 1%"]
]}

###

Tested Target: human JMJD5 (Homo sapiens)
Construct: made in house; host or cells: Escherichia coli BL21(DE3)
Procedure Summary: SPE-MS JMJD5 turnover and kinetic assay (RPS6_128–148 hydroxylation)
Type: biochemical
Test Parameters: absence of 2OG; JMJD5 0.15 μM, 2OG derivative 400 μM, Fe(II) 20 μM, RPS6_128–148 2.0 μM
Measured Endpoint: JMJD5 (%): RPS6_128–148 hydroxylation with the compound as cosubstrate

{"columns": ["Compound", "Measurement"],
 "data": [
  ["O=C(O)C(=O)C1C2C=CC(C2)C1C(=O)O (racemic)", "< 1%"],
  ["Cc1cc(C(=O)O)ccc1C(=O)C(=O)O", "< 1%"],
  ["CC(CC(=O)C(=O)O)C(=O)O (stereo not shown) [Entry 8]", "< 1%"],
  ["CCCC(CC(=O)C(=O)O)C(=O)O (stereo not shown)", "∼10%"],
  ["O=C(O)C(=O)c1ccc(C(=O)O)s1", "< 1%"],
  ["CC1(C)c2ccccc2-c2ccc(CC(CC(=O)O)C(=O)C(=O)O)cc21 (stereo not shown) [C00015]", "<1%"],
  ["CC1(C)C(C(=O)O)C1C(=O)C(=O)O (mixture of isomers)", "< 1%"],
  ["CCC(CC(=O)O)C(=O)C(=O)O (stereo not shown)", "<1%"],
  ["O=C(O)C(=O)c1ccccc1C(=O)O [Entry 26]", "< 1%"],
  ["CC(CC(=O)C(=O)O)C(=O)O (stereo not shown) [C00017]", "∼10%"]
]}

###

Tested Target: human KDM4E (Homo sapiens, UniProt B2RXH2)
Sequence (B2RXH2 whole entry): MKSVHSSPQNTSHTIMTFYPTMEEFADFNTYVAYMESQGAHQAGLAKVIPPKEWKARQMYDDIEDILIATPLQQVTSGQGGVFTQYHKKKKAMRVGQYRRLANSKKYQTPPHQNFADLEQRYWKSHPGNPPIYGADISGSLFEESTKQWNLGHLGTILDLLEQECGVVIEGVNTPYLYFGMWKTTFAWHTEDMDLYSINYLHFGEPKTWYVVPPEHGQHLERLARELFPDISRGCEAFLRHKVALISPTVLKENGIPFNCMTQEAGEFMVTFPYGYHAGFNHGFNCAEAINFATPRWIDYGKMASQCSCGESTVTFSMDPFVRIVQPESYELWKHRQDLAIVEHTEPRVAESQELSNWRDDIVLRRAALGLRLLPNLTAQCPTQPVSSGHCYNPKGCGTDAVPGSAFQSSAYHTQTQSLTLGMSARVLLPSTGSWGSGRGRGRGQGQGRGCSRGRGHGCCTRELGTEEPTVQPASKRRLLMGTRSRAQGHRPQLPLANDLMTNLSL
Procedure Summary: KDM4E SPE-MS turnover and kinetic assay (H3 K9(me3) peptide demethylation)
Assay type: biochemical
Test Parameters: absence of 2OG; KDM4E 0.15 μM, 2OG derivative 330 μM, Fe(II) 50 μM, ARTAQTARK(me3)STGGIA 10.0 μM
Measured Endpoint: KDM4E (%): substrate demethylation with the compound as cosubstrate

{"columns": ["Compound", "Measurement"],
 "data": [
  ["O=C(O)C(=O)c1ccc(C(=O)O)s1 [2OG derivative 34]", "< 1%"],
  ["O=C(O)C(=O)CC(Cc1ccccc1)C(=O)O (stereo not shown) [C00010]", "<1%"],
  ["CC(C)CC(CC(=O)C(=O)O)C(=O)O (racemic) [Entry 16]", "< 1%"],
  ["CC1(C)c2ccccc2-c2ccc(CC(CC(=O)O)C(=O)C(=O)O)cc21 (stereo not shown) [Entry 7]", "< 1%"],
  ["O=C(O)C(=O)C1(C(=O)O)CC1 [2OG derivative 25]", "< 1%"],
  ["O=C(O)C(=O)c1ccccc1C(=O)O [Entry 26]", "< 1%"],
  ["CCC(CC(=O)O)C(=O)C(=O)O (stereo not shown) [C00005]", "<1%"],
  ["O=C(O)CC(Cc1ccc(OC(F)(F)F)cc1)C(=O)C(=O)O (stereo not shown) [C00011]", "<1%"],
  ["Cc1cc(C(=O)O)ccc1C(=O)C(=O)O [2OG derivative 32]", "< 1%"],
  ["O=C(O)C(=O)CC(Cc1ccccc1)C(=O)O (racemic) [Entry 19]", "< 1%"],
  ["O=C(O)C(=O)c1ccc(C(=O)O)cc1F [2OG derivative 28]", "< 1%"],
  ["CC(C)(C)CCC(CC(=O)C(=O)O)C(=O)O (racemic) [Entry 17]", "< 1%"],
  ["O=C(O)C(=O)c1ccc(C(=O)O)cc1 [C00018]", "<1%"],
  ["CC(CC(=O)C(=O)O)C(=O)O (stereo not shown) [C00017]", "<1%"],
  ["CCC(CC(=O)C(=O)O)C(=O)O (stereo not shown) [C00004]", "<1%"],
  ["COc1ccc(CC(CC(=O)O)C(=O)C(=O)O)cc1 (stereo not shown) [C00013]", "∼5%"],
  ["O=C(O)CCC(=O)C(=O)O [2OG, 2-oxoglutarate, reference compound]", "~ 70%"],
  ["O=C(O)C(=O)c1cscc1C(=O)O [Entry 34]", "< 1%"],
  ["O=C(O)C(=O)c1cccc(C(=O)O)c1 [C00016]", "<1%"],
  ["O=C(O)C(=O)c1ccc(C(=O)O)c(Br)c1 [2OG derivative 31]", "< 1%"],
  ["O=C(O)C(=O)C1CC[C@@H](C(=O)O)C1 (stereo partly shown) [C00012]", "<1%"],
  ["O=C(O)C(=O)c1ccc(C(=O)O)cc1Br [2OG derivative 30]", "< 1%"]
]}

Reference for the values: paper PMC10246557
